System: A375 cells
Assay: Tumor cell line proliferation assay (CellTiter Glo), A375
Format: cell-based
Conditions: Homo sapiens, A-375, 96 h, read-out: A375 (V599E) Cell Proliferation IC50
pIC50: −log10 of the molar value.
OBSERVATION_TYPE: pIC50

Cc1cc(-c2n[nH]c3cc4c(cc23)CN([C@@H]2CCCN(Cc3ccc(F)cn3)C2)C(=O)N4)ccn1 : 6.00 to 6.60
Cc1cc(-c2n[nH]c3cc4c(cc23)CN([C@@H]2CCCN(Cc3ccc(F)c(Cl)c3)C2)C(=O)N4)ccn1 : ≥ 6.60
Cn1cc(-c2n[nH]c3cc4c(cc23)CN(Cc2ccc(F)c(Cl)c2)C(=O)N4)ccc1=O : 6.00 to 6.60
Cc1cc(-c2n[nH]c3cc4c(cc23)CN(Cc2cccc(Cl)c2)C(=O)N4)cc(C)n1 : ≥ 6.60
Cc1cc(-c2n[nH]c3cc4c(cc23)CN(CCNCc2ccccc2)C(=O)N4)ccn1 : ≥ 6.60
Cc1cc(-c2n[nH]c3cc4c(cc23)CN([C@@H]2CCCN(Cc3cc(C)no3)C2)C(=O)N4)ccn1 : 6.00 to 6.60
Cc1cc(-c2n[nH]c3cc4c(cc23)CN([C@@H]2CCCN(CC3CCCCC3)C2)C(=O)N4)ccn1 : 6.00 to 6.60
[2H]c1c([2H])c([2H])c(C([2H])([2H])N2CCC[C@@H](N3Cc4cc5c(-c6ccnc(C)c6)n[nH]c5cc4NC3=O)C2)c([2H])c1[2H] : ≥ 6.60
Cc1cc(-c2n[nH]c3cc4c(cc23)CN(Cc2cccc(C(F)(F)F)c2)C(=O)N4)ccn1 : ≥ 6.60

Okay, next one:
Look up and state reported pIC50 for `COc1ccc(CN2Cc3cc4c(-c5ccnc(C)c5)n[nH]c4cc3NC2=O)cc1`
6.00 to 6.60
